// data source = PubChem BioAssay AID2060891

System: K98450-129-R-PDC complex spheroid growth, percent test/control;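 also: luminescence used as a proxy for viable cell amount; spheroids exposed to agents for seven days before the viability readout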
ASSAY_SUMMARY: Anticancer human tumor K98450-129-R-PDC patient-derived colon adenocarcinoma cell line growth inhibition [RAS]
ASSAY_SETUP: second compound 0.03 µM; first compound 0.01 µM; hits give low values
EXPERIMENTAL_ENDPOINT: viability, T/C (%)
Response body: numeric value in %, unit text excluded.

Problem: Can you share its viability, T/C? I mean this compound: C=CC(=O)Nc1cc(Nc2nccc(-c3cn(C)c4ccccc34)n2)c(OC)cc1N(C)CCN(C)C + CCn1c(-c2cccnc2C(C)OC)c2c3cc(ccc31)N1CCOC(CC(NC(=O)C(C(C)C)N(C)C(=O)C3(F)CCN(C(=O)C#CC(C)(C)N(C)C)CC3)C(=O)N3CCCC(N3)C(=O)OCC(C)(C)C2)C1
Result: 30.9

Problem: Can you handle CC(C)n1nc(-c2ccc3oc(N)nc3c2)c2c(N)ncnc21 + CCn1c(-c2cccnc2C(C)OC)c2c3cc(ccc31)N1CCOC(CC(NC(=O)C(C(C)C)N(C)C(=O)C3(F)CCN(C(=O)C#CC(C)(C)N(C)C)CC3)C(=O)N3CCCC(N3)C(=O)OCC(C)(C)C2)C1 next?
Result: 23.9

Problem: Same read-out for CCN1CCN(Cc2ccc(Nc3ncc(F)c(-c4cc(F)c5nc(C)n(C(C)C)c5c4)n3)nc2)CC1 + CCn1c(-c2cc(N3CCN(C)CC3)cnc2C(C)OC)c2c3cc(ccc31)-c1csc(n1)CC(NC(=O)C1CC1C)C(=O)N1CCCC(N1)C(=O)OCC(C)(C)C2 ?
Result: 51.8

Problem: # iterate: CC(C)n1nc(-c2ccc3oc(N)nc3c2)c2c(N)ncnc21 + CCn1c(-c2cc(N3CCN(C)CC3)cnc2C(C)OC)c2c3cc(ccc31)-c1csc(n1)CC(NC(=O)C1CC1C)C(=O)N1CCCC(N1)C(=O)OCC(C)(C)C2
Result: 51.4

Problem: Repeat for the following compound: C=CC(=O)N1CCN(c2nc(OCC3CCCN3C)nc3c(F)c(-c4nc(N)cc(C)c4C(F)(F)F)c(Cl)cc23)C(C)C1 (configuration not stated) + CCn1c(-c2cc(N3CCN(C)CC3)cnc2C(C)OC)c2c3cc(ccc31)-c1csc(n1)CC(NC(=O)C1CC1C)C(=O)N1CCCC(N1)C(=O)OCC(C)(C)C2
Result: 46.3

Problem: Param item: CCN1CCN(Cc2ccc(Nc3ncc(F)c(-c4cc(F)c5nc(C)n(C(C)C)c5c4)n3)nc2)CC1 + CCn1c(-c2cccnc2C(C)OC)c2c3cc(ccc31)N1CCOC(CC(NC(=O)C(C(C)C)N(C)C(=O)C3(F)CCN(C(=O)C#CC(C)(C)N(C)C)CC3)C(=O)N3CCCC(N3)C(=O)OCC(C)(C)C2)C1
Result: 37.6

Problem: Check Nc1ccn(C2OC(CO)C(O)C2(F)F)c(=O)n1 (configuration not stated) + CCn1c(-c2cccnc2C(C)OC)c2c3cc(ccc31)N1CCOC(CC(NC(=O)C(C(C)C)N(C)C(=O)C3(F)CCN(C(=O)C#CC(C)(C)N(C)C)CC3)C(=O)N3CCCC(N3)C(=O)OCC(C)(C)C2)C1 too.
Result: 34.8

Problem: Lookup C=CC(=O)N1CCN(c2nc(OCC3CCCN3C)nc3c(F)c(-c4nc(N)cc(C)c4C(F)(F)F)c(Cl)cc23)C(C)C1 (configuration not stated) + CCn1c(-c2cccnc2C(C)OC)c2c3cc(ccc31)N1CCOC(CC(NC(=O)C(C(C)C)N(C)C(=O)C3(F)CCN(C(=O)C#CC(C)(C)N(C)C)CC3)C(=O)N3CCCC(N3)C(=O)OCC(C)(C)C2)C1
Result: 37.1

Problem: Same question for Nc1ccn(C2OC(CO)C(O)C2(F)F)c(=O)n1 (configuration not stated) + CCn1c(-c2cc(N3CCN(C)CC3)cnc2C(C)OC)c2c3cc(ccc31)-c1csc(n1)CC(NC(=O)C1CC1C)C(=O)N1CCCC(N1)C(=O)OCC(C)(C)C2 please.
Result: 45.9

Problem: # iterate: O=C(c1ccc(F)c(F)c1Nc1ccc(I)cc1F)N1CC(O)([C@@H]2CCCCN2)C1 + CCn1c(-c2cc(N3CCN(C)CC3)cnc2C(C)OC)c2c3cc(ccc31)-c1csc(n1)CC(NC(=O)C1CC1C)C(=O)N1CCCC(N1)C(=O)OCC(C)(C)C2
Result: 45

Problem: Likewise for C=CC(=O)Nc1cc(Nc2nccc(-c3cn(C)c4ccccc34)n2)c(OC)cc1N(C)CCN(C)C + CCn1c(-c2cc(N3CCN(C)CC3)cnc2C(C)OC)c2c3cc(ccc31)-c1csc(n1)CC(NC(=O)C1CC1C)C(=O)N1CCCC(N1)C(=O)OCC(C)(C)C2 ?
Result: 49

Problem: Cool, now O=C(c1ccc(F)c(F)c1Nc1ccc(I)cc1F)N1CC(O)([C@@H]2CCCCN2)C1 + CCn1c(-c2cccnc2C(C)OC)c2c3cc(ccc31)N1CCOC(CC(NC(=O)C(C(C)C)N(C)C(=O)C3(F)CCN(C(=O)C#CC(C)(C)N(C)C)CC3)C(=O)N3CCCC(N3)C(=O)OCC(C)(C)C2)C1
Result: 33.5
